- System: human EPO production, Hep3B cells
- assay: Human EPO production activity in Hep3B cells (EPO-ELISA of culture supernatant)
- Assay type: cell-based
- applied.conditions: Homo sapiens, 24 hr incubation, values consisting solely of numbers, read-out: EC50 (μM) in vitro, human EPO production activity
Counter-ions that a name gives are not always drawn.
measurement.label: EC50 (µM)

O=C(O)CNC(=O)c1c(O)cc(-c2ccccc2F)n2ncnc12 [Example 61, acetic acid hydrochloride] :: 28.8
O=C(O)CNC(=O)c1c(O)cc(-c2cc(Cl)cc(C3CC3)c2)c2ncnn12 [Example 103, acetic acid hydrochloride] :: 6.9
O=C(O)CNC(=O)c1c(O)cc(-c2ccc(Cl)s2)c2ncnn12 [Example 96, acetic acid hydrochloride] :: 5.9
O=C(O)CNC(=O)c1c(O)cc(-c2cc(F)ccc2F)n2ncnc12 [Example 75, acetic acid hydrochloride] :: 23.7
O=C(O)CNC(=O)c1c(O)cc(-c2cc(F)cc(F)c2)c2ncnn12 [Example 85, acetic acid hydrochloride] :: 20.6
O=C(O)CNC(=O)c1c(O)cc(-c2cc(F)cc(F)c2)n2ncnc12 [Example 21] :: 12
O=C(O)CNC(=O)c1c(O)cc(CCc2ccc(F)cc2)c2ncnn12 [Example 90, acetic acid hydrochloride] :: 16.6
C[C@H](NC(=O)c1c(O)cc(CCc2ccccc2)n2ncnc12)C(=O)O [Example 69, hydrochloride] :: 12
O=C(O)CNC(=O)c1c(O)cc(CCC2CCCC2)c2ncnn12 [Example 99, acetic acid hydrochloride] :: 20.2
O=C(O)CNC(=O)c1c(O)cc(-c2ccc(Cl)cc2F)n2ncnc12 [Example 62, acetic acid hydrochloride] :: 10.1

1. O=C(O)CNC(=O)c1c(O)cc(-c2ccc(Cl)cc2)n2ncnc12 [Example 50, hydrochloride]
2. O=C(O)CNC(=O)c1c(O)cc(-c2ccc(F)cc2)n2ncnc12 [Example 32, hydrochloride]
3. O=C(O)CNC(=O)c1c(O)cc(-c2cc(F)cc(Cl)c2)n2ncnc12 [Example 41, hydrochloride]
4. O=C(O)CNC(=O)c1c(O)cc(CCC2CCCCC2)c2ncnn12 [Example 98, acetic acid hydrochloride]
Arrange by EC50, high to low. Please list the labels in the order you were asked to rank them. 4, 2, 3, 1
(4: 25.6 µM, 2: 15.6 µM, 3: 9.1 µM, 1: 5.6 µM)

P. O=C(O)CNC(=O)c1c(O)cc(CCc2cc(F)cc(F)c2)n2ncnc12 [Example 19, hydrochloride]
Q. CCC(CC)c1cc(O)c(C(=O)NCC(=O)O)c2ncnn12 [Example 40, hydrochloride]
R. O=C(O)CNC(=O)c1c(O)cc(-c2ccc(F)c(C(F)(F)F)c2)n2ncnc12 [Example 1, hydrochloride]
Arrange by EC50, high to low. Please list the labels in the order you were asked to rank them. Q, R, P
